Biological target: T1, recombinant mouse sclerostin (mouse, UniProt Q99P68 24-211)
T1 construct: also called ms sclerostin; murine sclerostin
T1 sequence (looked up): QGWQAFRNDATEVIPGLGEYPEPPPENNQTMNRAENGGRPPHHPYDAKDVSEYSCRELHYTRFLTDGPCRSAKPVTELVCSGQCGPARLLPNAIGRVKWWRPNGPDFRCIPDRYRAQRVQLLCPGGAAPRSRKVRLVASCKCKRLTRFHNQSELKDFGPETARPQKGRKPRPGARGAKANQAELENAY
Assay: SPR
# kon values compiled below
Give the quantity in M⁻¹ s⁻¹, number only.

Example cases with answers are listed next.
INSERT INTO assay_data (binder, property_measured, value_measured) VALUES
  ('AE10-6-AM7 (antibody, V domains shown, converted into IgG; also called rHC + LC S4 clone 131) VH: EVQLVQSGAEVKKPGASVKVSCKVSGYTLTELSMHWVRQAPGKGLEWMGGFDPEDGETIYAQKFQGRVTMTEDTSTDTAYMELSSLRSEDTAVYYCATDTVGYWEKFFQHWGQGTLVTVSS VL: QAVVTQEPSLTVSPGGTVTLTCGSSTGTVTIDHYPYWFQQKPGQAPRTLISDTDDKHSWTPARFSGSLLGGKAALTLSGAQPEDEAEYYCLLDYGGRFVFGGGTKLTVL', 'kon', '1.3e+07'),
  ('AE10-6-AM5 (antibody, V domains shown, converted into IgG) VH: EVQLVQSGAEVKKPGASVKVSCKVSGYTLSELSMHWVRQAPGKGLEWMGGFDPEGGETIYAQKFQGRVTMTEDTSTDTAYMELSSLRSEDTAVYYCATDAGGYWYKFFQHWGQGTLVTVSS VL: QAVVTQEPSLTVSPGGTVTLTCGSSTGTVTIDHYPYWFQQKPGQAPRTLISDTDDKHSWTPARFSGSLLGGKAALTLSGAQPEDEAEYYCLLFYGGTVVFGGGTKLTVL', 'kon', '7e+06');

Let's switch to this binder now.
Entry AE10-6-AM2 (antibody, V domains shown, converted into IgG; also called rHC + LC S4 clone 102) VH: EVQLVQSGAEVKKPGASVKVSCKVSGYTLTELSMHWVRQAPGKGLEWMGGFDPEAGETIYAQKFQGRVTMTEDTSTDTAYMELSSLRSEDTAVYYCATDGELYWYKFFQHWGQGTLVTVSS VL: QAVVTQEPSLTVSPGGTVTLTCGSSTGAVTIWHYPYWFQQKPGQAPRTLISDTNDKHSWTPARFSGSLLGGKAALTLSGAQPEDEAEYYCLLDYGGSFVFGGGTKLTVL — recorded kon = 2.1e+07

The origin of these recorded values is patent US20150266977A1.
